// reported Eos per item
- Species on record: Rattus norvegicus
- procedure_text: Open TG-GATES - Regimen: Single
- Format: toxicity, organism-based, Sprague-Dawley
- Parameters: regimen Single, gender Male, age 6 weeks
- experimental_context: in vivo, po, 300 mg/kg, 9 h, tissue Blood, route gavage, dose level Middle
Report only the number, with the unit % understood.

INSERT INTO results (cpd_smiles, units_label, observed_value) VALUES
  ('COC(=O)C1=C(C)NC(C)=C(C(=O)OC)C1c1ccccc1[N+](=O)[O-]', '%', 0.6);

// field: Eos; key: "CNC(=C[N+](=O)[O-])NCCSCc1ccc(CN(C)C)o1" ; value = 1

// field: Eos; key: "O=C(OC[C@H]1O[C@@H](OC(=O)c2cc(O)c(O)c(OC(=O)c3cc(O)c(O)c(O)c3)c2)[C@H](OC(=O)c2cc(O)c(O)c(OC(=O)c3cc(O)c(O)c(O)c3)c2)[C@@H](OC(=O)c2cc(O)c(O)c(OC(=O)c3cc(O)c(O)c(O)c3)c2)[C@@H]1OC(=O)c1cc(O)c(O)c(OC(=O)c2cc(O)c(O)c(O)c2)c1)c1cc(O)c(O)c(OC(=O)c2cc(O)c(O)c(O)c2)c1" ; value = 1

// field: Eos; key: "CN/C(=N/CCSCc1nc[nH]c1C)NC#N" ; value = 0.8

// field: Eos; key: "Cc1nnc2n1-c1ccc(Cl)cc1C(c1ccccc1Cl)=NC2" ; value = 0.8

---

- Species on record: Rattus norvegicus
- procedure_text: Open TG-GATES - Regimen: Daily Repeat
- Format: toxicity, organism-based, Sprague-Dawley
- Parameters: regimen Daily Repeat, gender Male, age 6 weeks
- experimental_context: in vivo, po, 300 mg/kg, […], tissue Blood, route gavage, dose level Middle, time 14 day
// reported Ht per item
Report only the number, with the unit % understood.

These recorded examples may help you get a feel for the data.
INSERT INTO results (compound, measurement_label, observed_value) VALUES
  ('COC(=O)C1=C(C)NC(C)=C(C(=O)OC)C1c1ccccc1[N+](=O)[O-] [NIFEDIPINE]', 'Ht', 44.7),
  ('CN/C(=N/CCSCc1nc[nH]c1C)NC#N [CIMETIDINE]', 'Ht', 42.9),
  ('Cc1nnc2n1-c1ccc(Cl)cc1C(c1ccccc1Cl)=NC2 [TRIAZOLAM]', 'Ht', 43.1),
  ('O=C(OC[C@H]1O[C@@H](OC(=O)c2cc(O)c(O)c(OC(=O)c3cc(O)c(O)c(O)c3)c2)[C@H](OC(=O)c2cc(O)c(O)c(OC(=O)c3cc(O)c(O)c(O)c3)c2)[C@@H](OC(=O)c2cc(O)c(O)c(OC(=O)c3cc(O)c(O)c(O)c3)c2)[C@@H]1OC(=O)c1cc(O)c(O)c(OC(=O)c2cc(O)c(O)c(O)c2)c1)c1cc(O)c(O)c(OC(=O)c2cc(O)c(O)c(O)c2)c1 [TANNIC ACID]', 'Ht', 41.1);

// field: Ht; key: CNC(=C[N+](=O)[O-])NCCSCc1ccc(CN(C)C)o1 [RANITIDINE] ; value = 40.6

---

- Organism: Rattus norvegicus
- procedure_text: Open TG-GATES - Regimen: Single
- Assay type: toxicity, organism-based, Sprague-Dawley
- Design: regimen Single, gender Male, age 6 weeks
- experimental_context: in vivo, po, 1000 mg/kg, 24 h, tissue Plasma, route gavage, dose level High
// reported LDH per item
Report only the number, with the unit IU/L understood.

These recorded examples may help you get a feel for the data.
INSERT INTO results (cpd_smiles, observed_value) VALUES
  ('CNC(=C[N+](=O)[O-])NCCSCc1ccc(CN(C)C)o1', 127.8),
  ('O=C(OC[C@H]1O[C@@H](OC(=O)c2cc(O)c(O)c(OC(=O)c3cc(O)c(O)c(O)c3)c2)[C@H](OC(=O)c2cc(O)c(O)c(OC(=O)c3cc(O)c(O)c(O)c3)c2)[C@@H](OC(=O)c2cc(O)c(O)c(OC(=O)c3cc(O)c(O)c(O)c3)c2)[C@@H]1OC(=O)c1cc(O)c(O)c(OC(=O)c2cc(O)c(O)c(O)c2)c1)c1cc(O)c(O)c(OC(=O)c2cc(O)c(O)c(O)c2)c1', 110.8),
  ('COC(=O)C1=C(C)NC(C)=C(C(=O)OC)C1c1ccccc1[N+](=O)[O-]', 78.2);

// field: LDH; key: "CN/C(=N/CCSCc1nc[nH]c1C)NC#N" ; value = 200

// field: LDH; key: "Cc1nnc2n1-c1ccc(Cl)cc1C(c1ccccc1Cl)=NC2" ; value = 84.4

---

- Organism: Rattus norvegicus
- procedure_text: Open TG-GATES - Regimen: Daily Repeat
- Assay type: toxicity, organism-based, Sprague-Dawley
- Set-up: regimen Daily Repeat, gender Male, age 6 weeks
- experimental_context: in vivo, po, 0 mg/kg, […], tissue Plasma, route gavage, dose level Control, time 7 day
measurement_label: A/G
Write no unit; give the number alone.

These recorded examples may help you get a feel for the data.
INSERT INTO measurements (molecule, measurement_label, observed_value) VALUES
  ('CC(C)NNC(=O)c1ccncc1 [IPRONIAZID]', 'A/G', 1.1),
  ('Nc1c2c(nc3ccccc13)CCCC2 [TACRINE]', 'A/G', 1.2),
  ('CN/C(=N/CCSCc1nc[nH]c1C)NC#N [CIMETIDINE]', 'A/G', 1.5);

Lab note: next molecule to report on.
// field: A/G; key: CN(C)CCC(c1ccc(Cl)cc1)c1ccccn1 (centres undefined) [CHLORPHENIRAMINE] ; value = 0.8

---

- Species on record: Rattus norvegicus
- procedure_text: Open TG-GATES - Regimen: Single
- Assay type: toxicity, organism-based, Sprague-Dawley
- Parameters: regimen Single, gender Male, age 6 weeks
- experimental_context: in vivo, po, 0 mg/kg, 3 h, tissue Blood, route gavage, dose level Control
// reported Ret per item
Report only the number, with the unit % understood.

INSERT INTO measurements (compound, measurement_label, units_label, observed_value) VALUES
  ('CS(=O)(=O)O.Cc1ccc(NC(=O)c2ccc(CN3CCN(C)CC3)cc2)cc1Nc1nccc(-c2cccnc2)n1 [IMATINIB MESYLATE]', 'Ret', '%', 9.4),
  ('O=C(OC[C@H]1O[C@@H](OC(=O)c2cc(O)c(O)c(OC(=O)c3cc(O)c(O)c(O)c3)c2)[C@H](OC(=O)c2cc(O)c(O)c(OC(=O)c3cc(O)c(O)c(O)c3)c2)[C@@H](OC(=O)c2cc(O)c(O)c(OC(=O)c3cc(O)c(O)c(O)c3)c2)[C@@H]1OC(=O)c1cc(O)c(O)c(OC(=O)c2cc(O)c(O)c(O)c2)c1)c1cc(O)c(O)c(OC(=O)c2cc(O)c(O)c(O)c2)c1', 'Ret', '%', 10.3),
  ('CCCc1cc(=O)[nH]c(=S)[nH]1', 'Ret', '%', 10.7);

// field: Ret; key: "Nc1c2c(nc3ccccc13)CCCC2" ; value = 7.9

---

// reported Ret per item
- Species on record: Rattus norvegicus
- procedure_text: Open TG-GATES - Regimen: Single
- Assay type: toxicity, organism-based, Sprague-Dawley
- Design: regimen Single, gender Male, age 6 weeks
- experimental_context: in vivo, po, 0 mg/kg, 6 h, tissue Blood, route gavage, dose level Control
Report only the number, with the unit % understood.

// field: Ret; key: "Brc1ccccc1" ; value = 9.3

// field: Ret; key: NC1=NC(=O)C(c2ccccc2)O1 (centres undefined) ; value = 9.1

// field: Ret; key: CS(=O)(=O)O.Cc1ccc(NC(=O)c2ccc(CN3CCN(C)CC3)cc2)cc1Nc1nccc(-c2cccnc2)n1 [IMATINIB MESYLATE] ; value = 11.2

// field: Ret; key: "CC(C)NNC(=O)c1ccncc1" ; value = 8.7

---

- Species: Rattus norvegicus
- procedure_text: Open TG-GATES - Regimen: Daily Repeat
- Type: toxicity, organism-based, Sprague-Dawley
- Parameters: regimen Daily Repeat, gender Male, age 6 weeks
- experimental_context: in vivo, po, 1000 mg/kg, […], tissue Plasma, route gavage, dose level High, time 28 day
Values of ALP greater than or equal to 600 IU/L map to Fulfilled; values below map to Not fulfilled.

Observe how each entry below is paired with its result.
INSERT INTO results (cpd_smiles, label_value) VALUES
  ('O=C(OC[C@H]1O[C@@H](OC(=O)c2cc(O)c(O)c(OC(=O)c3cc(O)c(O)c(O)c3)c2)[C@H](OC(=O)c2cc(O)c(O)c(OC(=O)c3cc(O)c(O)c(O)c3)c2)[C@@H](OC(=O)c2cc(O)c(O)c(OC(=O)c3cc(O)c(O)c(O)c3)c2)[C@@H]1OC(=O)c1cc(O)c(O)c(OC(=O)c2cc(O)c(O)c(O)c2)c1)c1cc(O)c(O)c(OC(=O)c2cc(O)c(O)c(O)c2)c1', 'Not fulfilled'),
  ('COC(=O)C1=C(C)NC(C)=C(C(=O)OC)C1c1ccccc1[N+](=O)[O-]', 'Fulfilled'),
  ('Cc1nnc2n1-c1ccc(Cl)cc1C(c1ccccc1Cl)=NC2', 'Fulfilled'),
  ('CN/C(=N/CCSCc1nc[nH]c1C)NC#N', 'Fulfilled'),
  ('CNC(=C[N+](=O)[O-])NCCSCc1ccc(CN(C)C)o1', 'Not fulfilled');

Turning to the following compound.
Query :: Is ALP at least 600 IU/L? Consider "CCOc1ccc(NC(C)=O)cc1"
Result :: Fulfilled
